System: U-251
Assay: NCI tumour cell line growth inhibition, 48 h
Calls of active or inactive are those of the source. Cut-off read from the data, not from the text of the source: active = GI50 up to about 1.1 µM and inactive = higher. Non-standard residues stand in square brackets, D forms with d. Residues, ends and D or L forms follow the SMILES beside them. ξ: configuration not given here. *: point of attachment. Cbz = O=C(OCc1ccccc1)*; ξK = NCCCCC(N)C(=O)O
The reply should name one outcome from 1 (yes) for active, 0 (no) for inactive

[Q] Record lookup: outcome of this test for `BrC(c1cccc2ccccc12)c1cccc2ccccc12` ?
[A] 0 (no)

[Q] GET /call?item= C=C1C(=O)OC2/C=C(\C)C(OC(C)=O)C3OC3C(C)(O)CC(OC(=O)/C(C)=C/C)C12 (stereo not given) returns the recorded outcome of this test.
[A] 0 (no)

[Q] I'd appreciate the recorded outcome for `Oc1ccc2c(c1)c1c(n2CCN2CCOCC2)-c2ccccc2CC1` from this test.
[A] 0 (no)

[Q] What outcome does the record of this test show for `O=c1c2cc3c(=O)n(CCc4ccccc4CO)c(=O)c3cc2c(=O)n1CCc1ccccc1CO` ?
[A] 0 (no)

[Q] Hello, I am checking results. What call was entered for COC(=O)/C=C1\SC2(O\C1=N/c1ccccc1)C1CC3CC(C1)CC2C3 (stereo not given) ?
[A] 0 (no)

[Q] For `COc1cc2c(cc1OC)-c1[nH]c3ccc(C#N)cc3c1CC(=O)N2` , which call appears in the assay record?
[A] 0 (no)

[Q] Write down the call the test reported for this compound. Item: `N[C@H](Cc1ccc2oc3cc(=O)c4ccccc4c-3nc2c1)C(=O)O`
[A] 0 (no)

[Q] Query: recorded result category for `O=C(/C=C/c1ccc([N+](=O)[O-])cc1)c1ccc(NCc2nc3ccccc3[nH]2)cc1` in this test
[A] 0 (no)

[Q] // param item: `C[C@@H]1C[C@H]2CC[C@H](O2)[C@H](C)C(=O)O[C@@H](C)C[C@@H]2CC[C@@H](O2)[C@@H](C)C(=O)O[C@H](C)C[C@H]2CC[C@H](O2)[C@H](C)C(=O)O[C@@H](C)C[C@@H]2CC[C@@H](O2)[C@@H](C)C(=O)O1` ; yields the recorded call
[A] 1 (yes)

[Q] Outcome? `Cc1ccc(/C=C2\CCCCC2=O)cc1`
[A] 0 (no)

[Q] For `COC(=O)[C@H]1C=C[C@@H](C)n2c(=O)c3cc4ccccc4cc3c(=O)n21` , which call appears in the assay record?
[A] 0 (no)

[Q] // outcome(item) with item = `Cc1nc2c(O)cccc2c(=O)[nH]1`
[A] 0 (no)

[Q] Could you please tell me the result logged for NCCCCC(NC(=O)OCc1ccccc1)C(=O)NCC(N)=O (stereo not given) (Cbz-[ξK]-Gly-NH2) in this assay?
[A] 0 (no)

[Q] Per the records of this test, what outcome belongs to O/N=C1/Nc2cc(Cl)ccc2C(=S)N2CSCC12 (stereo not given) ?
[A] 0 (no)

[Q] Short answer needed: outcome of this test for CC(C)OC(=O)[C@H]1ON2O[C@H](O[C@@H]3CCCC[C@H]3c3ccccc3)C([Si](C)(C)c3ccccc3)[C@H]3OC(=O)[C@@H]1C32 (stereo not given in full) ?
[A] 0 (no)

[Q] # lookup: test call for CCCOP1(=O)C=C(C)C(Cl)=C(C)C1 (stereo not given)
[A] 0 (no)

[Q] What was the test verdict on CCOC(=O)C1CCCCN1CCc1c[nH]c2ccccc12 (stereo not given) ?
[A] 0 (no)

[Q] // return assay outcome for `CC(C)[Si](OC1=CCC[C@H]2NC(=O)[C@@H](Cc3ccccc3)[C@@]12C)(C(C)C)C(C)C`
[A] 0 (no)

[Q] GET /call?item= `CC[C@@]1(O)C(=O)OCc2c1cc1n(c2=O)Cc2c-1nc1ccccc1c2CC[Si](C)(C)C` returns the recorded outcome of this test.
[A] 1 (yes)

[Q] Kindly provide the recorded test outcome for the following compound: `COc1ccc2[nH]c3c(C)c4cc[n+](C)cc4c(C)c3c2c1`
[A] 1 (yes)

[Q] Recorded test outcome, item `CN(C)C(=S)/N=c1\ss/c(=N\S(=O)(=O)c2ccccc2)n1N(C)C`
[A] 0 (no)

[Q] Hi, sorry to bother you, what did the test record for `Cc1ccc(Cc2n[nH]c(=O)n2N2C(=O)c3ccccc3C2=O)cc1` ?
[A] 0 (no)

[Q] // outcome(item) with item = `O=C(Nc1ccc(Cl)cc1Cl)/C(Cl)=C1/Sc2ccccc2NC1=O`
[A] 0 (no)

[Q] I'd appreciate the recorded outcome for `COc1ccc(SCc2cc(OCc3ccccc3)c(OCc3ccccc3)c(OCc3ccccc3)c2)cc1` from this test.
[A] 0 (no)

[Q] I'd appreciate the recorded outcome for `COC1=NCc2ccccc2-c2ccccc21` from this test.
[A] 0 (no)

[Q] Tell me the assay call for `O=C1OCC2=Nc3cccc4cccc(c34)N12` please.
[A] 0 (no)

[Q] Would you mind telling me which call this test gave `Cc1c(NC(=O)c2cc([N+](=O)[O-])cc([N+](=O)[O-])c2)c(=O)n(-c2ccccc2)n1C` ?
[A] 0 (no)

[Q] # outcome recorded in this test, key = `C=CC(=O)NCCC(=O)OCn1cc(F)c(=O)[nH]c1=O`
[A] 0 (no)

[Q] Please state the recorded outcome for this compound: `Clc1ccc2oc(CCC3CCCCC3)nc2c1`
[A] 0 (no)

[Q] What did this assay record as the result for `Cc1[nH]c2ccccc2c1/C=N/NC(=O)c1cccc(I)c1` ?
[A] 0 (no)

[Q] Status in this test for `CC1=[N+]([O-])C(C)(C)N(N=O)C1(C)C` ?
[A] 0 (no)

[Q] Write down the call the test reported for this compound. Item: `COc1cccc(/C=N/[N-]C(=S)Nc2ccccc2)c1[O-].O.[Zn+2]`
[A] 0 (no)

[Q] What did this assay record as the result for Cc1ccc(SCC(OCn2cnc3c(Cl)nc(N)nc32)[C@H](C)F)cc1 (stereo not given in full) ?
[A] 0 (no)

[Q] GET /call?item= `CC(C)=CCC1=C(OCC(=O)O)C(=O)c2ccccc2C1=O` returns the recorded outcome of this test.
[A] 0 (no)

[Q] Fill in: this test's call for COc1ccc(CC(O)CN2CCOCC2)cc1 (stereo not given) is ___
[A] 0 (no)
